# ASSAY_NOTES: In vitro metabolism study (esterase hydrolysis) with 1483 HNSCC cells, RP-HPLC
# Format: in vitro ADME
# STUDY_CONDITIONS: human, read-out: t1/2, disappearance of the parent conjugate (converted)
READOUT_LABEL: half-life (h)

• COc1ccc2c(c1)c(CC(=O)NCCOC(=O)\C=C(C)/C=C/C=C(C)/C=C/C1=C(C)CCCC1(C)C)c(C)n2C(=O)c1ccc(Cl)cc1 [Compound 27i] = 5.5

* * *

# ASSAY_NOTES: Fluorescence in buffer
# Format: physicochemical
# STUDY_CONDITIONS: excitation
Measured Fluor. λex accompanies every entry in the list below.
READOUT_LABEL: Fluor. λex (nm)

- COc1ccc2c(c1)c(CC(=O)NCCCCNC(=O)c1ccc(C(=O)[O-])c(C3=c4cc5c6c(c4Oc4c3cc3c7c4CCCN7CCC3)CCC[N+]=6CCC5)c1)c(C)n2C(=O)c1ccc(Cl)cc1 [Compound 27vv]: 581
- COc1ccc2c(c1)c(CC(=O)NCCCCNC(=O)Cc1ccc(Nc3ccc([N+](=O)[O-])c4nonc34)cc1)c(C)n2C(=O)c1ccc(Cl)cc1 [Compound 27ii]: 492
- CCN(CC)c1ccc2c(-c3ccc(S(=O)(=O)NCCOCCOCCOCCOCCC(=O)NCCCCNC(=O)Cc4c(C)n(C(=O)c5ccc(Cl)cc5)c5ccc(OC)cc45)cc3S(=O)(=O)[O-])c3ccc(=[N+](CC)CC)cc-3oc2c1 [Compound 27iii]: 571
- COc1ccc2c(c1)c(CC(=O)NCCNS(=O)(=O)c1ccc(/N=N/c3ccc(N(C)C)cc3)cc1)c(C)n2C(=O)c1ccc(Cl)cc1 [Compound 27aa]: 390
- COc1ccc2c(c1)c(CC(=O)NCCCNS(=O)(=O)c1cccc3c(N(C)C)cccc13)c(C)n2C(=O)c1ccc(Cl)cc1 [Compound 27y]: 343
- COc1ccc2c(c1)c(CC(=O)NCCNS(=O)(=O)c1cccc3c(N(C)C)cccc13)c(C)n2C(=O)c1ccc(Cl)cc1 [Compound 27x]: 355
- CC[N+](CC)=c1ccc2c(-c3ccccc3)c(C)c(/C=C/C=C3/N(CCCCCC(=O)NCCCCNC(=O)Cc4c(C)n(C(=O)c5ccc(Cl)cc5)c5ccc(OC)cc45)c4ccc(S(=O)(=O)[O-])cc4C3(C)C)oc-2c1 [Compound 27ttt]: 710
